# METHOD: Drug metabolism in human intestinal microsomes assessed as formation of scutellarein-6,7-diglucuronide after 7 mins by HPLC/UV analysis
# Format: ADME, Intestine, Microsome
pKi: −log10 of the molar value.
ENDPOINT_LABEL: pKi

1. O=C(O)[C@H]1O[C@@H](Oc2c(O)cc3oc(-c4ccc(O)cc4)cc(=O)c3c2O)[C@H](O)[C@@H](O)[C@@H]1O | 4.93
2. O=C(O)[C@H]1O[C@@H](Oc2cc3oc(-c4ccc(O)cc4)cc(=O)c3c(O)c2O)[C@H](O)[C@@H](O)[C@@H]1O [SCUTELLARIN] | 4.23

* * *

ATP-binding cassette sub-family C member 2 (Homo sapiens, UniProt Q92887) data, read-out IC50
Sequence (Q92887 whole entry): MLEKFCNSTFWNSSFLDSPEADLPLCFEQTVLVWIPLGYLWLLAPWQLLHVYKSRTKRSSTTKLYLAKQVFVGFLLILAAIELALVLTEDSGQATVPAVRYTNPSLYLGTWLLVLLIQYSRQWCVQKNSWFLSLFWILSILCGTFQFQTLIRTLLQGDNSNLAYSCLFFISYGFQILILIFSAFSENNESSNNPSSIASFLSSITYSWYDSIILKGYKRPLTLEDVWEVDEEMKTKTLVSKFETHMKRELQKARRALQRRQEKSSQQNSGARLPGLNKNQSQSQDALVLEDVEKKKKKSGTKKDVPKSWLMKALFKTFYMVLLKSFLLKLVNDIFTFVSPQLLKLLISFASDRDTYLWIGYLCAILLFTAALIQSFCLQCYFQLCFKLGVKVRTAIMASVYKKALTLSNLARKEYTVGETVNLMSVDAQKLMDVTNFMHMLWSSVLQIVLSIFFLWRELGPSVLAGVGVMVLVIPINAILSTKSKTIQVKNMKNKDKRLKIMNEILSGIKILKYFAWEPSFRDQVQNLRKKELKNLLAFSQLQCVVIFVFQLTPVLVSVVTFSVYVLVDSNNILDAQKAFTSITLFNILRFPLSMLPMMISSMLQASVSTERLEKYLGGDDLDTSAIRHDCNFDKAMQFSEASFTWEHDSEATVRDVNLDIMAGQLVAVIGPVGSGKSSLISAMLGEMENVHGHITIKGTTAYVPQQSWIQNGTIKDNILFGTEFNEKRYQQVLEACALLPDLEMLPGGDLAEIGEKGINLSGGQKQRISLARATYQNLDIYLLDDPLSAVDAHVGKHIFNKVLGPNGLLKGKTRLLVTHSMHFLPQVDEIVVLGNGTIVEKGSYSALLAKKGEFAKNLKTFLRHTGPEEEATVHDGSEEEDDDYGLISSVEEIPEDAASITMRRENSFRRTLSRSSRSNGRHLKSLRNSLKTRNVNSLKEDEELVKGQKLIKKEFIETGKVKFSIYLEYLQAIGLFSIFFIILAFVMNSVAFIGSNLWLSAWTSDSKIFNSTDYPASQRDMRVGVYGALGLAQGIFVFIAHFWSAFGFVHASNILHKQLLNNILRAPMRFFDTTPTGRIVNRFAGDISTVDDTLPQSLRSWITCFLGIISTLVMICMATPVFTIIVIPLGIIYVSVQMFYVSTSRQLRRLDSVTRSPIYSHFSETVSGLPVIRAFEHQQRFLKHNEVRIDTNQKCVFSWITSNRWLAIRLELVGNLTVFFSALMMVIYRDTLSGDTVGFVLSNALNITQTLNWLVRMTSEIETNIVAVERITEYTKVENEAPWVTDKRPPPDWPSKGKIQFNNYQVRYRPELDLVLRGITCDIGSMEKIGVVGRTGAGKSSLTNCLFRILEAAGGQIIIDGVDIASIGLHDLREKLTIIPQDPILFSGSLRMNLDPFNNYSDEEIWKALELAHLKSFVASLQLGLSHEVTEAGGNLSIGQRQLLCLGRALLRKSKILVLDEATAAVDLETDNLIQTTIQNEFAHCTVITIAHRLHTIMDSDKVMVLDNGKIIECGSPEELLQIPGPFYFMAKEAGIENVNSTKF
ENDPOINT_LABEL: IC50 (µM)

1) O=C(O)[C@H]1O[C@@H](Oc2cc3oc(-c4ccc(O)cc4)cc(=O)c3c(O)c2O)[C@H](O)[C@@H](O)[C@@H]1O | 75
2) O=C(O)[C@H]1O[C@@H](Oc2c(O)cc3oc(-c4ccc(O)cc4)cc(=O)c3c2O)[C@H](O)[C@@H](O)[C@@H]1O | 50

* * *

# METHOD: Drug metabolism in rat intestinal microsomes assessed as formation of scutellarein-6,7-diglucuronide after 7 mins by HPLC/UV analysis
# Type: ADME, Intestine, Microsome
# MEASUREMENT_PARAMETERS: rat, microsomes, 7 min
ENDPOINT_LABEL: Km (µM)

1. O=C(O)[C@H]1O[C@@H](Oc2cc3oc(-c4ccc(O)cc4)cc(=O)c3c(O)c2O)[C@H](O)[C@@H](O)[C@@H]1O [SCUTELLARIN] | 349
2. O=C(O)[C@H]1O[C@@H](Oc2c(O)cc3oc(-c4ccc(O)cc4)cc(=O)c3c2O)[C@H](O)[C@@H](O)[C@@H]1O | 41.1

* * *

# METHOD: Drug metabolism in human intestinal microsomes assessed as formation of scutellarein-6,7-diglucuronide after 7 mins by HPLC/UV analysis
# Format: ADME, Intestine, Microsome
# MEASUREMENT_PARAMETERS: human, microsomes, 7 min
ENDPOINT_LABEL: Km (µM)

1. O=C(O)[C@H]1O[C@@H](Oc2c(O)cc3oc(-c4ccc(O)cc4)cc(=O)c3c2O)[C@H](O)[C@@H](O)[C@@H]1O | 156
2. O=C(O)[C@H]1O[C@@H](Oc2cc3oc(-c4ccc(O)cc4)cc(=O)c3c(O)c2O)[C@H](O)[C@@H](O)[C@@H]1O [SCUTELLARIN] | 643

* * *

# SYSTEM_NAME: UDP-glucuronosyltransferase 1A1 (Homo sapiens, UniProt P22309)
# Sequence (P22309 whole entry): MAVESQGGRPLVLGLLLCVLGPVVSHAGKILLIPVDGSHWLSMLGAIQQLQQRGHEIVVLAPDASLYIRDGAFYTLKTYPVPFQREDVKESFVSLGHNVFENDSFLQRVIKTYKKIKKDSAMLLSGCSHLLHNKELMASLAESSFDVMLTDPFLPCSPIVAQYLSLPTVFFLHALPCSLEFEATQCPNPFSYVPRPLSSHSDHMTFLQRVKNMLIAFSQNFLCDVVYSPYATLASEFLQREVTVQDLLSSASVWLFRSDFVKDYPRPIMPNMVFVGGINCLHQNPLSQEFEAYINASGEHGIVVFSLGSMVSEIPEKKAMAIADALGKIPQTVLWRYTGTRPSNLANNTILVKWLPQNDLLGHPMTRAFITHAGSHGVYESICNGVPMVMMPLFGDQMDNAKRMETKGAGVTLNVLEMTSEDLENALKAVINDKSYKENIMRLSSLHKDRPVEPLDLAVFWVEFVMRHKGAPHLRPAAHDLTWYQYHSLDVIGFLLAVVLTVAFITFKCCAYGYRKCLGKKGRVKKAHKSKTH
# METHOD: Drug metabolism assessed as human recombinant UGT1A1-mediated formation of scutellarein-6,7-diglucuronide after 25 mins by HPLC/UV analysis
# Format: ADME
pKi: −log10 of the molar value.
ENDPOINT_LABEL: pKi

1) O=C(O)[C@H]1O[C@@H](Oc2cc3oc(-c4ccc(O)cc4)cc(=O)c3c(O)c2O)[C@H](O)[C@@H](O)[C@@H]1O | 4.02

* * *

# System: Liver microsome
# METHOD: Drug metabolism in rat liver microsomes assessed as formation of scutellarein-6-O-glucuronide after 7 mins by HPLC/UV analysis
# Format: ADME
ENDPOINT_LABEL: Km (µM)

1) O=c1cc(-c2ccc(O)cc2)oc2cc(O)c(O)c(O)c12 | 2.86

Source: ChEMBL document CHEMBL3526031
